test-protocol: NCI Yeast Anticancer Drug Screen. Data for the sgs1 mgt1 strain (AID 161);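 also: 0% = growth of cultures given vehicle only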
measurement-conditions: S. cerevisiae sgs1 mgt1 strain, at 50.0 µM (retest, dose inferred, filed as 5.0), active compounds read high
Compounds without any hit were thinned out: in the full panel of roughly 79,000, 15% have a hit. Active and inactive are the calls of the source. Rule as the data show it: active = growth inhibition above about 70%; inactive = the rest.
Answer each item with its documented growth inhibition.

Here is how some molecules turned out for growth inhibition.
> print(dat)
                                   molecule           endpoint   test.result
1  OCC(Cn1cncn1)(c1ccc(F)cc1F)n1cncn1 (stereo unspecified)  growth inhibition  78% (active)
2         CCCCCCCCCCCC1=C(O)C(=O)C=C(O)C1=O  growth inhibition  85% (active)

Batch request: growth inhibition per item, same order as input.
1. C/C(=N\NC(=S)SCc1ccccc1)c1ccccn1
2. S=C(N/N=C(/c1ccccc1)c1ccccn1)N1CCCCCC1
3. CCCCCCCCCCNC(=O)OCC
4. CC1=C(C)Cc2c(O)ccc(O)c2C1
5. O=C(COC(=O)c1cc(O)c(O)c(O)c1)c1ccc(-c2ccccc2)cc1
6. COc1ccccc1/C=C1\Sc2scc(-c3cccc([N+](=O)[O-])c3)[n+]2C1=O

a:
["95% (active)", "96% (active)", "56% (inactive)", "98% (active)", "98% (active)", "98% (active)"]

// for each molecule below, give its growth inhibition
1. CC1=C(SCCO)C(=O)c2ccccc2C1=O
2. S=C(Nc1ccc(Cl)cc1)SC1CCCCC1
3. CC(=O)Nc1ccc(SC(C)=O)cc1

a:
["72% (active)", "79% (active)", "78% (active)"]

----------
test-protocol: NCI Yeast Anticancer Drug Screen. Data for the cln2 rad14 strain (AID 165);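 also: 0% = growth equal to vehicle treated cultures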
measurement-conditions: S. cerevisiae cln2 rad14 strain, at 50.0 µM (retest, dose inferred, filed as 5.0), active compounds read high
This is part of a sample that, as a whole, favours compounds with a hit. Of some 79,000 tested, about 15% had one in any assay.
Output 1 (yes) for growth inhibition not less than 90%; output 0 (no) otherwise.

Example results:
> print(dat)
                                   compound  class.name
1    CC(=O)N/N=C/C(C)(C)C(C)(C)/C=N/NC(C)=O      0 (no)
2     COc1cc2ccc(/C=C\[N+](=O)[O-])cc2cc1OC      0 (no)
3  Cc1ccc(S(=O)(=O)NCCSS(=O)(=O)c2ccc(C)cc2)cc1     1 (yes)
4                COc1ccc(OC)c2cc3ccccc3cc12      0 (no)

q: Is it the case that CNC(=O)OCc1c(COC(=O)NC)c(-c2ccc(-c3ccccc3)cc2)n(C)c1C has growth inhibition reaching or exceeding 90%?
a: 0 (no)

q: Please tell me: is the compound COc1ccc(/C=C2\SC(=S)N(/C=C/c3nc4ccccc4[nH]c3=O)C2=O)cc1OC at or over 90% in terms of growth inhibition?
a: 0 (no)

q: Decide: is the reported value of growth inhibition for c1ccc2c(c1)C(=NCCCN1CCCCCC1)c1cccn1-2 equal to or greater than 90%?
a: 0 (no)

q: Check the entry CCCCCCCCCCC1CCC(=O)O1 (stereo not given) : does growth inhibition equal or exceed 90%?
a: 0 (no)

----------
test-protocol: NCI Yeast Anticancer Drug Screen. Data for the wt1 strain (AID 149);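 also: 0% = growth of vehicle-treated wt1 cultures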
measurement-conditions: S. cerevisiae wt1 strain (SPY 50644) growth inhibition; at 100.0 µM; active compounds read high
The panel holds about 79,000 compounds, 15% with a hit somewhere; the sample as a whole holds those more often.
endpoint: growth inhibition (%)
Answers are plain numbers, in %.

> print(dat)
                      compound  test.result
1  O=[N+]([O-])c1ccc(=S)[nH]c1           78

Parameter requested: growth inhibition. Apply to each item below.
1. O=[N+]([O-])c1ccc2nc3ccccc3cc2c1
2. Oc1c(Br)cc(Br)cc1C1CCCCC1

a:
81
98

----------
test-protocol: NCI Yeast Anticancer Drug Screen. Data for the wt2 strain (AID 169);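 also: 0% = growth of vehicle-treated yeast cultures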
measurement-conditions: S. cerevisiae wt2 strain growth inhibition; at 3.7 µM; active compounds read high
About 79,000 compounds went through this panel and 15% of them were active in at least one assay; those are over-represented in the sample as a whole.
endpoint: growth inhibition (%)
Answers are plain numbers, in %.

> print(dat)
                                    compound  test.result
 1  C=CCC1=C(C)C(OC(=O)/C=C/c2ccccc2)CC1=O (centres undefined)          -11
 2              c1ccc2c(c1)c1ncccc1c1nccnc21           14
 3              CC1=C(SCCO)C(=O)c2ccccc2C1=O            0
 4  O=C(CCCN1CCC(O)(c2ccc(Cl)cc2)CC1)c1ccc(F)cc1           21
 5         Clc1cccc(C(Nc2nncs2)Nc2nncs2)c1Cl            8
 6  CCCCCCc1cc(C(=O)OC/C(C)=N/NC(N)=O)c2ccccc2n1           -1
 7  O=C1C=CC(=Nc2ccc3c(c2)Cc2cc(NC(=O)C(F)(F)F)ccc2-3)O1            3
 8           O=[N+]([O-])/C=C/c1ccc2ccccc2c1           18
 9                            C#CCCCc1ccccc1          -55
10  CCCCCCCCCCCCCCCCCCOCC(O)COP(=O)(O)OCC1OC(n2cc(F)c(=O)[nH]c2=O)CC1O (centres undefined)          -83

Please go through the list and note growth inhibition for each compound.
1. O=C1C(=O)c2ccccc2C=C1[N+](=O)[O-]
2. Cc1ccc(CSC(N)=Nc2ccccc2)cc1C

a:
6
-3

Could I get growth inhibition for every one of these entries?
1. O=[N+]([O-])c1ccc2c(c1)C(N1CCN(CCO)CC1)Cc1ccc(F)cc1S2 (centres undefined)
2. Cc1cc(N=Nc2ccc(S(=O)(=O)[O-])cc2)cc(C(=O)[O-])c1[O-].NC1CCCCC1N.[Na+].[Pt+4]

a:
-3
93

----------
test-protocol: NCI Yeast Anticancer Drug Screen. Data for the rad14 strain (AID 159);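 also: 0% = growth of vehicle-treated control cultures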
measurement-conditions: S. cerevisiae rad14 strain growth inhibition; at 3.7 µM; active compounds read high
About 79,000 compounds went through this panel and 15% of them were active in at least one assay; those are over-represented in the sample as a whole.
endpoint: growth inhibition (%)
Answers are plain numbers, in %.

Observe how each entry below is paired with its result.
> print(dat)
                                    compound           endpoint  test.result
 1  N#CC(C(=O)Nc1ccccc1)C1=C(Cl)C(=O)c2ccccc2C1=O (centres undefined)  growth inhibition           42
 2                          CSC1=NNC(SC)=NN1  growth inhibition           -4
 3              COc1ccc2c(c1)C(=O)c1ccccc1C2  growth inhibition            6
 4               O=[N+]([O-])c1ccc(=S)[nH]c1  growth inhibition           -6
 5               S=c1[nH]nc(Nc2ccc(Cl)cc2)s1  growth inhibition            1
 6  CC(CC(C)(C)[N+](C)(C)C)[N+](C)(C)C (centres undefined)  growth inhibition            3
 7         N#Cc1c(N)[nH]c2ccc(Sc3ccccc3)cc12  growth inhibition            4
 8             NNC(=O)CCc1ccc2ccc3ccccc3c2c1  growth inhibition           -2
 9  CCOC(=O)c1cnc2cc(C(F)(F)F)ccc2c1N=[N+]=[N-]  growth inhibition            3
10                 COc1ccc2ccc3ccccc3c2c1C=O  growth inhibition            5

Batch of 4 compounds: report growth inhibition for each.
1. Cc1ccc(N)c(S)c1
2. COc1cccc2nc3ccccc3nc12
3. Cn1c2ccccc2c(=O)c2cc(NC(=O)CCCCC(=O)Nc3ccc4c(c3)c(=O)c3ccccc3n4C)ccc21
4. CCCS(=O)(=O)Nc1ccc(Nc2c3ccccc3nc3ccccc23)c(OC)c1

a:
1. -36
2. 0
3. 3
4. -61

Hello, I would appreciate it if you could give growth inhibition for each entry below.
1. CCCCCCCCCCCC(=O)N(C)C
2. Cc1c(C2=C(Br)C(=O)N(C)C2=O)c(=O)n(C)c(=O)n1C
3. CCCCCCCCCCC1CCC(=O)O1 (centres undefined)
4. CC1=C(SCCO)C(=O)c2ccccc2C1=O
5. CN1CCc2ccccc2C1Cc1ccccc1NC(=O)c1sc2ccccc2c1Cl (centres undefined)
6. c1ccc2c(c1)-c1nc3ccccc3cc1C2N1CCOCC1 (centres undefined)
7. CCC#CCCCOC(=O)c1cc([N+](=O)[O-])cc([N+](=O)[O-])c1

a:
1: 2; 2: 13; 3: 3; 4: 3; 5: -40; 6: 0; 7: -6

Value sought for every listed compound: growth inhibition.
1. c1ccc2c(c1)C(=NCCCN1CCCCCC1)c1cccn1-2
2. S=C(Nc1ccc(Cl)c(Cl)c1)SCc1ccc2c(c1)OCO2
3. FC(F)(F)c1cc(NC(=S)N2c3ccccc3-n3cccc3C2c2cccnc2)cc(C(F)(F)F)c1 (centres undefined)

a:
-3
54
0

Batch of 7 compounds: report growth inhibition for each.
1. CC(C)c1ccccc1NC(=O)/C(Cl)=C(\Cl)C(=O)O
2. CCN(CC)C(C)(C)C(=O)/C=C/c1ccccc1
3. Cc1ccc(CCC2=CCCc3c2ccc2ccccc32)cc1
4. O=C(NC(Nc1ccc(F)c(Cl)c1)(C(F)(F)F)C(F)(F)F)C(C(F)(F)F)C(F)(F)F
5. CCN(CC)C(=S)N/N=C(/C)c1cccc(/C(C)=N\NC(=S)N(CC)CC)n1
6. c1ccc2c(c1)c1ncccc1c1nccnc21
7. CC(C)OC(=O)Oc1ccccc1OC(=O)OC(C)C

a:
[2, -3, -4, 19, 10, 3, -4]
